assayed_target: PKC α (Homo sapiens)
measurement_notes: Protein Kinase C Histone-Based Assay, α isoform
Type: biochemical
conditions_used: histone III substrate, 30 μM ATP, 10 min at 30° C.; read-out: PKC Activity (IC50 μM, Histone Based Assay) Alpha
endpoint_name: log10(IC50) (log10 of the value in µM)
// do not treat as linear: log10 of IC50, unit µM

Worked examples, 6 molecules total:
CN(C)CCn1nc(C2=C(c3cn(-c4csc5ccccc45)c4ccccc34)C(=O)NC2=O)c2ccccc21 = -0.72
O=C1NC(=O)C(c2nn(CCCN3CCCC3)c3ccccc23)=C1c1cn(-c2ccc3ccccc3c2)c2ccccc12 = -0.32
CN(C)CCCn1nc(C2=C(c3cn(-c4cnc5ccccc5c4)c4ccccc34)C(=O)NC2=O)c2ccccc21 = -1.96
CN(C)CCCn1nc(C2=C(c3cn(-c4ccc5cc(O)ccc5c4)c4ccccc34)C(=O)NC2=O)c2ccccc21 = -1.00
CNCCCn1nc(C2=C(c3cn(C)c4ccc(Cl)cc34)C(=O)NC2=O)c2ccccc21 = -0.48
CN(C)CCCn1nc(C2=C(c3cn(-c4cncc5ccccc45)c4ccccc34)C(=O)NC2=O)c2ccccc21 = -0.54

Required: log10(IC50), one value per molecule below.
1. CN(C)CCCn1nc(C2=C(c3cn(-c4cccnc4)c4ccc(Cl)cc34)C(=O)NC2=O)c2ccccc21
2. O=C1NC(=O)C(c2nn(CCC3OCCO3)c3ccccc23)=C1c1cn(-c2cnc3ccccc3c2)c2ccccc12

-1.96
-0.70
